Each entry below carries its recorded metabolised.
# assayOverview: Drug metabolism in mouse liver microsomes; also: time not given here
# Format: ADME, Microsome
# experimentalConditions: read-out: Drug metabolism
Quick note: give the figure in %, leave out the unit.

[[record]]
compound = "Cc1cc(N2CCC(N3CCCC3C)C2)ccc1NC(=O)c1ccc2cc[nH]c2c1 (stereo unspecified)"
measurementlabel = "metabolised"
endpointresult = 21


Prompt: // metabolised lookup, key: Cc1noc(C)c1C(=O)Nc1ccc(N2CCC(N3CCCC3C)C2)cc1 (stereo unspecified)
Response: 12

Prompt: // metabolised lookup, key: CC1CCCN1C1CCN(c2ccc(NC(=O)c3ccc(Cl)cc3)cc2)C1 (stereo unspecified)
Response: 43

Prompt: // metabolised lookup, key: Cc1cc(N2CCC(N3CCCC3C)C2)ccc1NC(=O)c1cccnc1 (stereo unspecified)
Response: 30

Prompt: // metabolised lookup, key: Cc1cc(C(=O)Nc2ccc(N3CCC(N4CCCC4C)C3)cc2)n[nH]1 (stereo unspecified)
Response: 16

Prompt: // metabolised lookup, key: CC1CCCN1C1CCN(c2ccc(NC(=O)c3ccccc3F)c(C(F)(F)F)c2)C1 (stereo unspecified)
Response: 44

Prompt: // metabolised lookup, key: Cc1cc(NC(=O)c2ccc(Cl)cc2)ccc1N1CCC(N2CCCC2C)C1 (stereo unspecified)
Response: 43

Prompt: // metabolised lookup, key: Cc1cc(N2CCC(N3CCCC3C)C2)ccc1NC(=O)c1ccc(Cl)cc1 (stereo unspecified)
Response: 22

Prompt: // metabolised lookup, key: Cc1cc(N2CCC(N3CCCC3C)C2)ccc1NC(=O)c1cn[nH]c1 (stereo unspecified)
Response: 16

Prompt: // metabolised lookup, key: CC1CCCN1C1CCN(c2ccc(NC(=O)c3ccccc3F)cc2)C1 (stereo unspecified)
Response: 31

Prompt: // metabolised lookup, key: Cc1cc(C)n(-c2ccc(C(=O)Nc3ccc(N4CCC(N5CCCC5C)C4)cc3C)cc2)n1 (stereo unspecified)
Response: 89

* * *

Each entry below carries its recorded metabolised.
# assayOverview: Drug metabolism in rat liver microsomes; also: time not given here
# Type: ADME, Microsome
# experimentalConditions: read-out: Drug metabolism
Quick note: give the figure in %, leave out the unit.

See these solved cases before continuing.
[[record]]
molecule = "Cc1cc(C)n(-c2ccc(C(=O)Nc3ccc(N4CCC(N5CCCC5C)C4)cc3C)cc2)n1 (stereo not drawn)"
endpointresult = 79

[[record]]
molecule = "Cc1cc(N2CCC(N3CCCC3C)C2)ccc1NC(=O)c1ccc2cc[nH]c2c1 (stereo not drawn)"
endpointresult = 64


Prompt: // metabolised lookup, key: Cc1cc(N2CCC(N3CCCC3C)C2)ccc1NC(=O)c1cc(F)ccc1C (stereo not drawn)
Response: 38

* * *

Each entry below carries its recorded metabolised.
# assayOverview: Drug metabolism in human liver microsomes; also: time not given here
# Type: ADME, Microsome
# experimentalConditions: read-out: Drug metabolism
Quick note: give the figure in %, leave out the unit.

[[record]]
compound = "Cc1cc(N2CCC(N3CCCC3C)C2)ccc1NC(=O)c1ccc2cc[nH]c2c1 (configuration not stated)"
unitannotation = "%"
endpointresult = 16

[[record]]
compound = "Cc1cc(N2CCC(N3CCCC3C)C2)ccc1NC(=O)c1cn[nH]c1 (configuration not stated)"
unitannotation = "%"
endpointresult = 2


Prompt: // metabolised lookup, key: Cc1cc(C)n(-c2ccc(C(=O)Nc3ccc(N4CCC(N5CCCC5C)C4)cc3C)cc2)n1 (configuration not stated)
Response: 87

Prompt: // metabolised lookup, key: Cc1cc(N2CCC(N3CCCC3C)C2)ccc1NC(=O)c1ccc(Cl)cc1 (configuration not stated)
Response: 32

Prompt: // metabolised lookup, key: CC1CCCN1C1CCN(c2ccc(NC(=O)c3ccccc3F)cc2)C1 (configuration not stated)
Response: 12

Prompt: // metabolised lookup, key: CC1CCCN1C1CCN(c2ccc(NC(=O)c3ccc(Cl)cc3)cc2)C1 (configuration not stated)
Response: 20

Prompt: // metabolised lookup, key: CC1CCCN1C1CCN(c2ccc(NC(=O)c3ccccc3F)c(C(F)(F)F)c2)C1 (configuration not stated)
Response: 14
